experiment: Measurement of log P value of the hardly water-soluble polyphenols (flask shaking method, JIS Z7260-107); settings: 1-octanol/water
Parameter Measured: logP at 4 days
Form field (numeric): enter value without unit.

Which value of logP at 4 days has been reported for Oc1ccc(C=Cc2cc(O)cc(O)c2)cc1 in the records? 3.08

// data source = patent US9688712B2
